System: HDQ-P1
method.description: normalised viability (% of control), CellTiter-Blue; higher = more viable cells (100 = DMSO, 0 = benzethonium chloride kill control)
run.conditions: incubation time: 72 h
List of normalised viability values.
measurement.label: normalised viability

INSERT INTO results (molecule, measured) VALUES
  ('CC(C)C[C@H](NC(=O)[C@H](Cc1ccccc1)NC(=O)c1cnccn1)B(O)O [Bortezomib] (0.1 nM)', '92.2%'),
  ('O=c1[nH]cc(F)c(=O)[nH]1 [Fluorouracil] (1 nM)', '110%'),
  ('Cn1cnc2c(F)c(Nc3ccc(Br)cc3F)c(C(=O)NOCCO)cc21 [MEK-162] (0.1 nM)', '102%'),
  ('CCOc1cc2ncc(C#N)c(Nc3ccc(OCc4ccccn4)c(Cl)c3)c2cc1NC(=O)/C=C/CN(C)C [Neratinib] (0.1 nM)', '86.8%'),
  ('COc1cccc2c1C(=O)c1c(O)c3c(c(O)c1C2=O)C[C@@](O)(C(C)=O)C[C@@H]3O[C@H]1C[C@H](N)[C@H](O)[C@H](C)O1 [Daunorubicin] (0.1 nM)', '98.8%'),
  ('CS(=O)(=O)OCCCCOS(C)(=O)=O [Busulfan] (10 nM)', '106%'),
  ('COC(=O)C[C@](O)(CCCC(C)(C)O)C(=O)O[C@@H]1C(OC)=C[C@]23CCCN2CCc2cc4c(cc2[C@H]13)OCO4 [Omacetaxine] (1 nM)', '84.7%'),
  ('O=c1[nH]c(=O)n([C@H]2C[C@H](O)[C@@H](CO)O2)cc1F [Floxuridine] (1 nM)', '108%'),
  ('Cn1c(=O)c(F)c(Nc2ccc(I)cc2F)c2c(=O)n(C[C@@H](O)CO)cnc21 [TAK-733] (0.1 nM)', '120%'),
  ('COc1ccc(C2=N[C@@H](c3ccc(Cl)cc3)[C@@H](c3ccc(Cl)cc3)N2C(=O)N2CCNC(=O)C2)c(OC(C)C)c1 [Nutlin-3] (1 nM)', '89%');
